Cited source for all entries: patent US20240294508A1

For each entry below, report its EC50 value.
# Test system: HT-29 cells
# Assay Name: HT29 cells 0FBS assay in vitro: TNF-α/SMAC mimetic/zVAD-FMK induced necroptosis, CellTiter-Glo cell viability (RIP1 inhibitory activity)
# Type: cell-based
# Experimental Parameters: Homo sapiens, FBS free medium, TNF-α (10 ng/ml) + SMAC mimetic (6 uM) + zVAD-FMK (10 μM), 20 hours, geometric mean EC50

Inquiry: I have this molecule here, Cc1nn(-c2cc(OC3CN(C(=O)N4N=CC[C@@H]4c4cc(F)cc(Cl)c4)C3)c(F)cn2)c(C)c1C(N)=O [Compound 134] , and I need its recorded EC50.
Reply text: 100 to 1000 nM

Inquiry: Please answer likewise for COc1nccc(C)c1-c1cc(OC2CN(C(=O)N3N=CC[C@H]3c3cc(F)cc(F)c3)C2)c(F)cn1 [Compound 165]
Reply text: 100 to 1000 nM

Inquiry: Please answer likewise for Cn1nccc1-c1cnc(OC2CN(C(=O)N3N=CC[C@H]3c3cc(F)cc(F)c3)C2)s1 [Compound 153]
Reply text: 0.1 to 100 nM

Inquiry: Please answer likewise for Cc1nsc(C)c1-c1cc(OC2CN(C(=O)N3N=CC[C@H]3c3cc(F)cc(C#N)c3)C2)c(F)cn1 [Compound 31]
Reply text: 0.1 to 100 nM

Inquiry: Please answer likewise for Cn1ncc(C#N)c1-c1csc(OC2CN(C(=O)N3N=CC[C@H]3c3cc(F)cc(F)c3)C2)n1 [Compound 150]
Reply text: 0.1 to 100 nM

Inquiry: Please answer likewise for Cc1cnn(C)c1-c1cnc(OC2CN(C(=O)N3N=CC[C@H]3c3cc(F)cc(F)c3)C2)s1 [Compound 154]
Reply text: 0.1 to 100 nM

Inquiry: Please answer likewise for Cc1ncc(C2CC=NN2C(=O)N2CC(Oc3cc(-c4c(C)cnn4C)ncc3F)C2)s1 (stereo not shown) [Compound 88]
Reply text: 0.1 to 100 nM

====

# System: HT-29 cells
# Assay Name: HT29 cells 0FBS assay in vitro: TNF-α/SMAC mimetic/zVAD-FMK induced necroptosis, CellTiter-Glo cell viability (RIP1 inhibitory activity)
# Assay type: cell-based
# Experimental Parameters: Homo sapiens, FBS free medium, TNF-α (10 ng/ml) + SMAC mimetic (6 uM) + zVAD-FMK (10 μM), 20 hours, geometric mean EC50
pEC50: −log10 of the molar value.
For each entry below, report its pEC50 value.

Inquiry: I have this compound here, Cn1ncc(Cl)c1-c1ncc(F)c(OC2CN(C(=O)N3N=CC[C@H]3c3cncc(F)c3)C2)n1 , and I need its recorded pEC50.
Reply text: 7.00 to 10.00

Inquiry: Please answer likewise for Cc1nn(-c2cc(OC3CN(C(=O)N4N=CC[C@H]4c4ccccc4)C3)c(F)cn2)c(C)c1C(=O)O
Reply text: 7.00 to 10.00

Inquiry: Please answer likewise for Cc1nn(-c2cc(OC3CN(C(=O)N4N=CC[C@@H]4c4cc(F)cc(Cl)c4)C3)c(F)cn2)c(C)c1C(=O)O
Reply text: 6.00 to 7.00

Inquiry: Please answer likewise for Cc1nn(-c2cc(OC3CN(C(=O)N4N=CC[C@H]4c4cccc(F)c4)C3)c(F)cn2)c(C)c1C(=O)NCCO
Reply text: 7.00 to 10.00

Inquiry: Please answer likewise for Cc1c(C#N)nn(C)c1-c1cc(OC2CN(C(=O)N3N=CC[C@H]3c3cc(F)cc(C#N)c3)C2)c(F)cn1
Reply text: 7.00 to 10.00

Inquiry: Please answer likewise for Cc1nc(C#N)c(C)n1-c1cc(OC2CN(C(=O)N3N=CC[C@H]3c3cncc(F)c3)C2)c(F)cn1
Reply text: 6.00 to 7.00

Inquiry: Please answer likewise for Cc1cc(F)cc([C@H]2CC=NN2C(=O)N2CC(Oc3cc(-n4nc(C)c(C(N)=O)c4C)ncc3F)C2)c1
Reply text: 6.00 to 7.00
